test: Plasma toxicokinetics after single i.v. bolus; format: in vivo, Sprague-Dawley rats; conditions: both sexes, Sprague-Dawley, rat, plasma, intravenous, 0.1 mg/kg, Anatabine 0.1 mg/kg; male and female; 4 hr; read-out: Avg. Conc. rat plasma, combined male and female

{"columns": ["Compound", "Scale unit", "concentration at 4 h"],
 "data": [
  ["C1=CCC(c2cccnc2)NC1 (racemic) [Anatabine, 1,2,3,6-tetrahydro-[2,3′]bipyridinyl]", "ng/mL", 5.2]
]}

====

test: Plasma toxicokinetics after single i.v. bolus; type: in vivo, Sprague-Dawley rats; conditions: female, Sprague-Dawley, rat, plasma, iv, 0.75 mg/kg, anatabine 0.75 mg/kg single i.v., female rats; read-out: t1/2 (converted)

{"columns": ["Compound", "half-life"],
 "data": [
  ["C1=CCC(c2cccnc2)NC1 (racemic) [Anatabine, 1,2,3,6-tetrahydro-[2,3′]bipyridinyl]", "1.73 h"]
]}
